Biological target: Adenosine receptor A1 (Homo sapiens, UniProt P30542)
Sequence (P30542 whole entry): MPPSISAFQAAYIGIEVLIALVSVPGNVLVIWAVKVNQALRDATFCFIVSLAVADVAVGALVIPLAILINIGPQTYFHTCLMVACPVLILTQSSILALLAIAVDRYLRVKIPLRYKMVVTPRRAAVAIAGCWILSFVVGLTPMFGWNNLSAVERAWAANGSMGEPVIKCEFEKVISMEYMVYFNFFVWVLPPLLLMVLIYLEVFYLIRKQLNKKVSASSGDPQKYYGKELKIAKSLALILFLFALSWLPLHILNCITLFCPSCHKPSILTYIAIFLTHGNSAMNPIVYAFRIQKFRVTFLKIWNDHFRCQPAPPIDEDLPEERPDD
Test: Antagonistic activity at adenosine A1 receptor
Below, each entry is listed alongside its reported log10(Ki).
Please keep in mind that the values are log10 of Ki expressed in nM.

Take a look at these entries with their results.
>  <smilesString>
Nc1nc(-c2ccc(F)cc2)c2c(n1)-c1cc(OCCN3C4CCC3CC4)ccc1C2=O

>  <measuredTarget>
Adenosine receptor A1 (Homo sapiens, UniProt P30542)

>  <log10(Ki)>
2.53

$$$$
>  <smilesString>
CCN1CCN(c2ccc3c(c2)-c2nc(N)nc(-c4ccccc4)c2C3=O)CC1

>  <measuredTarget>
Adenosine receptor A1 (Homo sapiens, UniProt P30542)

>  <log10(Ki)>
2.41

$$$$
>  <smilesString>
Nc1nc(-c2ccccc2)c2c(n1)-c1cc(NCCN3CCS(=O)(=O)CC3)ccc1C2=O

>  <measuredTarget>
Adenosine receptor A1 (Homo sapiens, UniProt P30542)

>  <log10(Ki)>
1.67

$$$$
>  <smilesString>
CN(C)CCOc1ccc2c(c1)-c1nc(N)nc(-c3ccccc3)c1C2=O

>  <measuredTarget>
Adenosine receptor A1 (Homo sapiens, UniProt P30542)

>  <log10(Ki)>
1.52

$$$$
>  <smilesString>
CCN1CCC(Nc2ccc3c(c2)-c2nc(N)nc(-c4ccccc4)c2C3=O)CC1

>  <measuredTarget>
Adenosine receptor A1 (Homo sapiens, UniProt P30542)

>  <log10(Ki)>
2.15

$$$$

Problem: // lookup log10(Ki) for Nc1nc(-c2ccccc2)c2c(n1)-c1cc(OCCN3CCCCC3)ccc1C2=O
Result: 2.29

Problem: // lookup log10(Ki) for Nc1nc(-c2ccccc2)c2c(n1)-c1cc(C(=O)N3CCNCC3)ccc1C2=O
Result: 1.09

Problem: // lookup log10(Ki) for Nc1nc(-c2ccccc2)c2c(n1)-c1cc(N3CCOCC3)ccc1C2=O
Result: 1.51

Problem: // lookup log10(Ki) for CCN(CC)CCNC(=O)c1ccc2c(c1)-c1nc(N)nc(-c3ccccc3)c1C2=O
Result: 1.66

Problem: // lookup log10(Ki) for CCN(CC)CCN(C)C(=O)c1ccc2c(c1)-c1nc(N)nc(-c3ccccc3)c1C2=O
Result: 1.98
